# ASSAY_INFO: in vitro
# EXPERIMENTAL_SETUP: hepatocytes
TEST_READOUT: half-life at 1 μM (h)
Numbers only, in h.

Ask: Recall and state the measured half-life at 1 μM for Cc1nc2c(F)cc(-c3nc(Nc4ccc(CN5CCO[C@](C)(CCN6CC6C)C5)cn4)ncc3F)cc2n1C(C)C (stereo partly shown) .
Reply: 1.71

====

Endpoint: Ki. System: CDK6 (Homo sapiens (Human)). Items follow.
Sequence (Q00534 whole entry): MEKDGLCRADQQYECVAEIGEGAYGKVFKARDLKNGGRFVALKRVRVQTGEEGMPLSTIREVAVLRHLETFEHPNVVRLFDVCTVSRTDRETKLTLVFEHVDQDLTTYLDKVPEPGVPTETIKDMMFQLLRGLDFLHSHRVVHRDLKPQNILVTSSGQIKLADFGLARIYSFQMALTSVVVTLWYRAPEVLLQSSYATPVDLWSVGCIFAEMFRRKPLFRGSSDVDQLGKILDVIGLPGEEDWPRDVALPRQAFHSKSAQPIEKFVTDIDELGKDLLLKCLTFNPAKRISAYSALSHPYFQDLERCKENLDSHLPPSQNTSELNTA
Sequence (P24385 whole entry partner): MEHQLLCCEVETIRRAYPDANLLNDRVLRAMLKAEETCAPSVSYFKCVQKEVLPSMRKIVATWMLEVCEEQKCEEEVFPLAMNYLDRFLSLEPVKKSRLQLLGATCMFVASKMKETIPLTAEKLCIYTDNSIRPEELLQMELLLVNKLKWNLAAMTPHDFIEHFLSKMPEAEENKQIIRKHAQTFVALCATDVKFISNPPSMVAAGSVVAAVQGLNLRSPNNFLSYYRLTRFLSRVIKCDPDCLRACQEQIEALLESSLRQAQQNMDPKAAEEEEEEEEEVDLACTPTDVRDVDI
One number for each entry, in nM.

Before answering, review these 3 worked examples.
Cc1nc2c(F)cc(-c3nc(Nc4ccc(CN5CCO[C@](C)(CC(=O)N6CCCC6)C5)cn4)ncc3F)cc2n1C(C)C [Compound A60]; 14.5
Cc1nc2c(F)cc(-c3nc(Nc4ccc(CN5CCO[C@](C)(CCN6CC6C)C5)cn4)ncc3F)cc2n1C(C)C (stereo partly shown) [Compound A11]; 5.9
COC(=O)N1CC[C@@]2(CN(Cc3ccc(Nc4ncc(F)c(-c5cc(F)c6nc(C)n(C(C)C)c6c5)n4)nc3)CCO2)C1 [Compound A33]; 20.1

Record Ki for all entries; do not skip any.
1. Cc1nc2c(F)cc(-c3nc(Nc4ccc(CN5CCO[C@]6(CCN(C(=O)OC(C)(C)C)C6)C5)cn4)ncc3F)cc2n1C(C)C [Compound A42]
2. Cc1nc2c(F)cc(-c3nc(Nc4ccc(CN5CCO[C@](C)(CC(=O)N(C)C)C5)cn4)ncc3F)cc2n1C(C)C [Compound A55]
3. CNCC[C@@]1(C)CN(Cc2ccc(Nc3ncc(F)c(-c4cc(F)c5nc(C)n(C(C)C)c5c4)n3)nc2)CCO1 [Compound A22]
4. Cc1nc2c(F)cc(-c3nc(Nc4ccc(CN5CCC56COC6)cn4)ncc3F)cc2n1C(C)C [Compound A61]

Reply:
1. 34.9
2. 11.9
3. 3.55
4. 9.53
